I'd appreciate it if you could supply Kd values for the items below.
molecular target: T1, recombinant human HER3 (human, UniProt P21860 20-643); assay: SPR (Biacore T200), HER3 captured via anti-His, Fab analyte;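 note: single cycle kinetics with five Fab concentrations, referenced against a blank flow cell and mock-buffer injections, sensorgrams fit to a 1:1 binding model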
T1 construct: Bought reagent
Give bare numbers, in nM.

Record excerpt, results attached:
H3 designed Vlambda-Ckappa chimeric Fab, design 24 (E83V_T105E) (Fab, name in Kabat numbering, V domains shown) VH: QVQLQESGGGLVKPGGSLRLSCAASGFTFSSYWMSWVRQAPGKGLEWVANINRDGSASYYVDSVKGRFTISRDDAKNSLYLQMNSLRAEDTAVYYCARDRGVGYFDLWGRGTLVTVSS VL: QSALTQPASVSGSPGQSITISCTGTSSDVGGYNFVSWYQQHPGKAPKLMIYDVSDRPSGVSDRFSGSKSGNTASLIISGLQADDVADYYCSSYGSSSTHVIFGGGTKVEVLR ... 102
H3 designed Vlambda-Ckappa chimeric Fab, design 16 (E83F_V106I) (Fab, name in Kabat numbering, V domains shown) VH: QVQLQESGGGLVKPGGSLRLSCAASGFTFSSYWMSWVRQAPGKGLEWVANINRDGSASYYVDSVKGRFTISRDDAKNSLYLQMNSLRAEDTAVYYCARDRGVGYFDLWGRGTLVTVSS VL: QSALTQPASVSGSPGQSITISCTGTSSDVGGYNFVSWYQQHPGKAPKLMIYDVSDRPSGVSDRFSGSKSGNTASLIISGLQADDFADYYCSSYGSSSTHVIFGGGTKVTILR ... 88.5

Prompt line: Please give the measured Kd for this binder: H3 designed Vlambda-Ckappa chimeric Fab, design 31 (E83I_T105E) (Fab, name in Kabat numbering, V domains shown) VH: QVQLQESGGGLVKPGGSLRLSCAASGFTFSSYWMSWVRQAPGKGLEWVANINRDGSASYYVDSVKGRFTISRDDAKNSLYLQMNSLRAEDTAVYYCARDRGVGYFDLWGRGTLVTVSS VL: QSALTQPASVSGSPGQSITISCTGTSSDVGGYNFVSWYQQHPGKAPKLMIYDVSDRPSGVSDRFSGSKSGNTASLIISGLQADDIADYYCSSYGSSSTHVIFGGGTKVEVLR
Response line: 82.7
